Each recorded value in this set is attributed to patent US11033535B2.

test: Pharmacokinetic evaluation following a single oral and intravenous administration; format: in vivo, CD1 mouse; conditions: CD1, mouse, plasma, iv, 1 mg/kg, Table 3, IV Dose: 1 mg/kg, 5 min, Mouse 3; read-out: Concentration
Assay readout: concentration at 5 min (ng/mL)
Lab book: enter the figure in ng/mL, no units written.

Need concentration at 5 min, item CNCc1ccc(C[C@H](NC(C)=O)c2nnc(-c3cccc(OC(F)(F)F)c3)s2)cc1
86.3

---

test: Pharmacokinetic evaluation following a single oral and intravenous administration; format: in vivo, CD1 mouse; conditions: CD1, mouse, plasma, iv, 1 mg/kg, Table 9, IV Dose: 1 mg/kg, 8 h, Mouse 3; read-out: Concentration
Assay readout: concentration at 8 h (ng/mL)
Write the number in ng/mL without appending the unit.

Which concentration at 8 h is listed for CC(=O)N[C@@H](Cc1ccc(CN(C)C)cc1)c1nnc(-c2cccc(OC(F)(F)F)c2)s1 ?
5.31
